Experimental Details: qHTS of Yeast-based Assay for SARS-CoV PLP; note: nearly all actives have a fitted effect of over 55% in size
Protocol Conditions: S. cerevisiae expressing SARS-CoV PLpro; growth rescue; series mostly up to 32.9 µM
Screen size: about 330,000 compounds; about 610 (0.18%) were called active. Roughly 2% stayed inconclusive and do not appear here. Calls come from the whole dose curve. The list comes from a sample in which actives are over-represented; it also holds close analogues and randomly drawn compounds.
Classes used: active, inactive

O=C(CNC(=O)C12CC3CC(CC(C3)C1)C2)OCC(=O)N1CCCCC1 : inactive
Nc1nonc1-n1nnc(C(=O)N/N=C/c2c[nH]c3ccccc23)c1-c1ccccc1 : inactive
C/C(=N\NC(=O)c1cccc([N+](=O)[O-])c1)c1cccnc1 : inactive
CC(C#N)OC(=O)c1cccnc1SCC(=O)Nc1ccc2c(c1)OCO2 (stereo not given) : inactive
CC(C)c1c(C(=O)N/N=C/c2ccc(-c3ccccc3)cc2)nnn1-c1nonc1N : inactive
Cc1[nH]n(-c2ccc([N+](=O)[O-])cc2)c(=O)c1C=NCCN1CCN(C(=O)c2ccccc2F)CC1 : inactive
O=C(CN1C(=O)/C(=C/c2ccccc2F)Sc2ccccc21)NCc1cccnc1 : inactive
O=C(CC1CCCCC1)NCc1ccco1 : inactive
O=C(Cn1cnc2c(nnn2-c2ccccc2)c1=O)N1CCC(Cc2ccccc2)CC1 : inactive
Cc1ccc(-n2[nH]c(C)c(/C=N/NC(=O)c3cccc([N+](=O)[O-])c3)c2=O)cc1C : active

----------
Experimental Details: qHTS of Yeast-based Assay for SARS-CoV PLP; note: nearly all actives have a fitted effect of over 55% in size
Protocol Conditions: S. cerevisiae expressing SARS-CoV PLpro; growth rescue; series mostly up to 32.9 µM
Hit rate of the full screen: of about 330,000 compounds, about 610 (0.18%) were called active. Not shown: some 2% with an inconclusive outcome. The call rests on the fitted dose curve. The entries come from a sample that favours actives as a whole.
Classes used: active, inactive

CCN(C(=O)c1ccc(Br)cc1)c1ccccc1 : inactive
Cc1ccccc1OCc1nnc(SCC(=O)N2c3ccccc3Sc3ccc(Cl)cc32)o1 : inactive
CC(C)CNC(=O)C1CCCN(S(=O)(=O)c2ccc(-n3cnnn3)cc2)C1 (stereo unspecified) : inactive
CC(=O)Nc1cccc2c1[n+]([O-])c(C)c(C)[n+]2[O-] : inactive
Cc1ccc(SCC(=O)c2sc(-c3ccccc3)nc2C)cc1 : active
CCc1cccc2c3c([nH]c12)C(CC)(CC(=O)O)OCC3 (stereo unspecified) : active
COc1ccc(-c2cc(=O)oc3cc(OC(C)C(=O)NCC4CCC(C(=O)O)CC4)ccc23)cc1 (stereo unspecified) : inactive
Cc1nc(-c2ccc(Cl)cc2)sc1C(=O)CBr : inactive
COc1ccc2cc(-c3[nH]ncc3CNCCn3nc(C)cc3C)ccc2c1 : inactive
Cc1nc(-c2ccccc2)sc1C(=O)/C=C/N(C)C : inactive
O=C(Oc1cccc(N2C(=O)C3C4c5ccccc5C(c5ccccc54)C3C2=O)c1)c1ccco1 (stereo unspecified) : inactive

----------
Experimental Details: qHTS of Yeast-based Assay for SARS-CoV PLP; note: nearly all actives have a fitted effect of over 55% in size
Protocol Conditions: S. cerevisiae expressing SARS-CoV PLpro; growth rescue; series mostly up to 32.9 µM
The campaign covered roughly 330,000 compounds. About 610 (0.18%) were called active. Not shown: some 2% with an inconclusive outcome. Calls come from the whole dose curve. This excerpt belongs to a sample that is enriched for actives.
Classes used: t = active, f = inactive

CC(=O)c1ccc(NC(=O)C2CC(=O)Nc3nc4ccccc4n32)cc1 (stereo unspecified) : f
Cc1ccc2occ(/C=N/NC(=O)c3ccccc3C)c(=O)c2c1 : f
COc1cccc(C(CC(=O)NCCN2CCOCC2)NS(=O)(=O)c2ccc(C)cc2)c1OC (stereo unspecified) : f
CCC(C)NC(=O)C1CCCN(C(=O)NC2CCCCC2)C1 (stereo unspecified) : f
Cc1cc2c(cc1S(=O)(=O)CCC(=O)NCc1ccccc1)OCC(=O)N2 : f
Cc1ccc(/C=N/NC(=O)C2=NNC(c3ccccc3)(c3ccccc3)C2)c(O)c1 : t
N#Cc1ccc(-c2nc3cc(C#N)c(C#N)cc3nc2-c2ccccc2)cc1C#N : f
COc1ccc(NC(=O)CCS(=O)(=O)c2cc3c(cc2Cl)NC(=O)CO3)cc1OC : t
CN(C)C(=O)N1CCNCC1 : f
CCOC(=O)c1c(N)c(C#N)nn1-c1ccccc1C(=O)OC : f
COc1ccc(Cl)cc1NC(=O)CCS(=O)(=O)c1cc2c(cc1C)NC(=O)CO2 : f

----------
Experimental Details: qHTS of Yeast-based Assay for SARS-CoV PLP; note: nearly all actives have a fitted effect of over 55% in size
Protocol Conditions: S. cerevisiae expressing SARS-CoV PLpro; growth rescue; series mostly up to 32.9 µM
Hit rate of the full screen: of about 330,000 compounds, about 610 (0.18%) were called active. About 2% were inconclusive and are not listed. Calls follow the shape of the full dose curve. Shown is part of a subset that was picked to be rich in actives.
Classes used: active, inactive

O=C(NCCCn1ccnc1)C(=O)NCC1OCCN1S(=O)(=O)c1cc(F)ccc1F (stereo unspecified) : inactive
COc1ccc(NC(=O)Cn2cc(C(=O)c3ccncc3)c(=O)c3cc(C)ccc32)cc1Cl : inactive
O=C(Nc1ccc(S(=O)(=O)N2CCCCC2)cc1)C1CC(=O)N(c2ccc(F)cc2)C1 (stereo unspecified) : inactive
Cc1ccc(OCCC(=O)Nc2ccc(S(=O)(=O)Nc3nccs3)cc2)cc1 : inactive
O=C(N/N=C/c1cc([N+](=O)[O-])ccc1O)/C(=C\c1cccs1)NC(=O)c1ccccc1 : active
Cc1cc(OC(=O)c2ccccc2Cl)ccc1N1C(=O)CCC1=O : inactive

----------
Experimental Details: qHTS of Yeast-based Assay for SARS-CoV PLP; note: nearly all actives have a fitted effect of over 55% in size
Protocol Conditions: S. cerevisiae expressing SARS-CoV PLpro; growth rescue; series mostly up to 32.9 µM
Screen size: about 330,000 compounds; about 610 (0.18%) were called active. Inconclusive results (about 2%) are left out. Calls follow the shape of the full dose curve. What follows is part of a selection rich in actives, with near analogues and random picks from the rest.
Classes used: T for active, F for inactive

Fc1ccc(CNCc2ccc(Br)cc2)cc1 : F
S=c1[nH]c(-c2cccs2)cn1-c1ccccc1 : T
CSc1nc(-c2ccco2)nn1C(=O)c1ccccc1Cl : F
COc1cccc(CNC(=O)CN(C)S(=O)(=O)c2ccc3c(c2)c(=O)n(C)c(=O)n3C)c1 : T
CC(C)N1CCC(=NNc2ccc([N+](=O)[O-])cc2S(=O)(=O)N2CCOCC2)CC1 : F
Cc1cc(OCCOc2cccc3cccnc23)c(C)cc1Cl : F
O=C(CCN1C(=O)C2C3C=CC(C3)C2C1=O)Oc1ccc2ccccc2c1 (stereo unspecified) : F
COC(=O)C1(C)NC(c2ccc(C)cc2)C2C(=O)N(c3ccc(F)cc3)C(=O)C21 (stereo unspecified) : F
COc1ccc(C(C(=O)NC(C)(C)C)N(Cc2ccc(F)cc2)C(=O)CCC(=O)Nc2cc(C)on2)cc1 (stereo unspecified) : F
Cn1c(=O)c2c(SCC(=O)N3CCOCC3)nc(C3CC3)nc2n(C)c1=O : F
O=C(NN1C(=O)C2C3C=CC(C3)C2C1=O)c1ccco1 (stereo unspecified) : F
CCCCNC(=O)N(O)C1N(/N=C/c2ccccc2O)C(=S)SC1(C)C (stereo unspecified) : F
COc1ccc(Br)cc1/C=N/NC(=O)c1cccc(S(=O)(=O)N2CCOCC2)c1 : F
CCc1ccccc1NC(=O)CN(C)S(=O)(=O)c1ccc2c(c1)c(=O)n(C)c(=O)n2C : F
CCc1cccc(NC(=O)COC(=O)c2cc(=O)c3ccccc3o2)c1 : F
O=C(NCCCCCCCCCNC(=O)C(F)(F)F)C(F)(F)F : F
O=C(CCl)N(Cc1cccc([N+](=O)[O-])c1)c1cccc(Cl)c1 : F
CCOC(=O)[C@@H]1[C@H]2COc3cc(OC)ccc3[C@H]2N2C(=O)N(c3ccc(F)cc3)C(=O)[C@]12C : F
S=c1[nH]nc(-c2cccs2)n1/N=C/c1cn(-c2ccccc2)nc1-c1ccc(Cl)cc1 : F
COc1ccc(NC(=O)C2CCC(CNS(=O)(=O)c3csc(C(N)=O)c3)CC2)cc1OC (stereo unspecified) : F
CC(C)=C1C2CCC1C1C(=O)N(NC(=O)c3ccco3)C(=O)C21 (stereo unspecified) : T

----------
Experimental Details: qHTS of Yeast-based Assay for SARS-CoV PLP; note: nearly all actives have a fitted effect of over 55% in size
Protocol Conditions: S. cerevisiae expressing SARS-CoV PLpro; growth rescue; series mostly up to 32.9 µM
The whole screen tested about 330,000 compounds, of which about 610 (0.18%) were called active. Not shown: some 2% with an inconclusive outcome. Calls follow the shape of the full dose curve. Shown is part of a subset that was picked to be rich in actives.
Classes used: Y for active, N for inactive

CCN(CC)c1ccc(/C=N/Nc2nc(C)cc(C)n2)c(O)c1 : Y
COc1ccccc1C(=O)NN1C(=O)C2C3C=CC(O3)C2C1=O (stereo unspecified) : N
COc1ccc(N(CCC#N)S(=O)(=O)c2ccc(Cl)cc2)cc1 : N
CC(NC(=S)Nc1ccccc1)C1COc2ccccc2O1 (stereo unspecified) : Y
Cc1ccc(SCc2c(C(=O)N/N=C/C3CC=CCC3)nnn2-c2nonc2N)cc1 (stereo unspecified) : N
Nc1nonc1-n1nnc(C(=O)N/N=C/c2cc(Br)ccc2O)c1CSC1=NCCS1 : Y
CC(C)Cc1nnc(NC(=O)CCC(=O)Nc2ccc3cn[nH]c3c2)s1 : N
COc1ccc(NC(=O)C(NC(C)=O)C(=O)NCc2ccccc2Cl)cc1 (stereo unspecified) : N
CCC1CCCCN1C(=O)CSc1nc2c(c(=O)n1C)SC(C)C2 (stereo unspecified) : N
Nc1nonc1-n1nnc(C(=O)N/N=C\c2ccncc2)c1CN1CCCCC1 : N
Cc1nn2c(c1-c1ccccc1)N=C(c1ccco1)CC2c1ccccc1 (stereo unspecified) : N
